Assayed System: human JAK1 (a.a. 837-1142) (Homo sapiens)
Construct: human JAK1 (a.a. 837-1142); His tag (N); made in house; host or cells: insect cells (baculovirus)
Sequence (P23458 849-1154): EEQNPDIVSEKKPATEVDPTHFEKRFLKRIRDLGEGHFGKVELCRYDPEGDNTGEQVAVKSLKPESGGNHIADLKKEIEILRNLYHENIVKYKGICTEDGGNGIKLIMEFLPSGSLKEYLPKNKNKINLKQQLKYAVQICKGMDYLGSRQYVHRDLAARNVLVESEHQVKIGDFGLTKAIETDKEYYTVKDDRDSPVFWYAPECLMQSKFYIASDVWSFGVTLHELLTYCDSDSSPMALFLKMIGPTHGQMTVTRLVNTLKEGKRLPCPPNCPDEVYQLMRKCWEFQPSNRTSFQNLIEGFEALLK
Assay Notes: In vitro JAK kinase assay (HTRF, phosphorylation of a biotinylated peptide), JAK1
Format: biochemical
Condition Description: method AA1 (90 μM ATP) or AA2 (1000 μM ATP), not stated per value; read-out: JAK1 IC50
Counter-ions that a name gives are not always drawn.
Consider the following compounds; for each one, report its IC50.
Answers are plain numbers, in nM.

Provide reported IC50 for each item, in the same order as listed.
1. Cc1noc(C)c1S(=O)(=O)N1CCC(CC(=O)Nc2ccc3cc2CCc2cncc(c2)Nc2ncc(Cl)c(n2)N3)CC1 [Example A231, bis(trifluoroacetate)]
2. Cc1noc(C)c1NC(=O)N1CCC(CC(=O)Nc2ccc3cc2CCc2cncc(c2)Nc2ncc(Cl)c(n2)N3)CC1 [Example A19, bis(trifluoroacetate)]

## Output
1. 9.7
2. 17

Kindly give each listed record's IC50.
1. CC(=O)N1CC[C@@H](C(=O)Nc2ccc3cc2CCc2cccc(c2)Nc2ncc(Cl)c(n2)N3)C1 [Example A51, trifluoroacetate]
2. Cc1cc(C(=O)N2CCCC(C(=O)Nc3ccc4cc3CCc3cccc(c3)Nc3ncc(Cl)c(n3)N4)C2)no1 (stereo not shown) [Example A121, trifluoroacetate]
3. O=C(Nc1ccc2cc1CCc1cccc(c1)Nc1ncc(Cl)c(n1)N2)C1CCCN(C(=O)c2ccccc2)C1 (stereo not shown) [Example A48, trifluoroacetate]

## Output
[13, 14, 27]

// for each compound below, give its IC50
1. O=C(CC1CCN(c2cccc(F)n2)CC1)Nc1ccc2cc1CCc1cncc(c1)Nc1ncc(Cl)c(n1)N2 [Example A181, tris(trifluoroacetate)]
2. C[N+]1(C)CCC(CC(=O)Nc2ccc3cc2CCc2cccc(c2)Nc2ncc(Cl)c(n2)N3)CC1

## Output
1. 6.3
2. 45
